Entry source: patent US20260265199A1

PROTOCOL_SUMMARY: Phase 1a study: pharmacokinetics after oral BID dosing in subjects with advanced solid tumors
Assay type: in vivo, human
ASSAY_CONTEXT: human, in vivo, po, 50 mg, 50 mg twice daily oral, Cycle 1 Day 21, median, N = 3
Text: This example describes a first in human, Phase 1a, multi-center, open-label study to establish the maximum tolerated dose (MTD) and evaluate the safety and tolerability of oral dosing of Form A of the hemi-fumarate salt of the compound of formula (I) (Example 11) in a dose-escalating fashion. […]
Counter-ions that a name gives are not always drawn.
MEASURED_METRIC: Tmax

Give a short answer stating reported Tmax for Cc1cc(NC(=O)[C@H](O)c2cc(F)cc(F)c2)ccc1-c1cnc(N)c(C(=O)NC(C)C)c1 [Form A of the hemi-fumarate salt] .
2 h

###

PROTOCOL_SUMMARY: Phase 1a study: pharmacokinetics after oral BID dosing in subjects with advanced solid tumors
Assay type: in vivo, human
ASSAY_CONTEXT: human, in vivo, po, 300 mg, 300 mg twice daily oral, Cycle 1 Day 21, point estimate, N = 1; read-out: AUC0-last
Structures can show the parent of a compound that is named as a salt.
MEASURED_METRIC: AUC(0-t)
Field note: include the unit after the figure.

Give a short answer stating reported AUC(0-t) for Cc1cc(NC(=O)[C@H](O)c2cc(F)cc(F)c2)ccc1-c1cnc(N)c(C(=O)NC(C)C)c1 [Form A of the hemi-fumarate salt] .
28400 ng·h/mL

###

PROTOCOL_SUMMARY: Solubility of mono-fumarate Form A estimated by solvent addition, visual assessment
Format: physicochemical
ASSAY_CONTEXT: water, thermodynamic from solid, Water; read-out: Solubility
Counter-ions that a name gives are not always drawn.
MEASURED_METRIC: solubility

Give a short answer stating reported solubility for Cc1cc(NC(=O)[C@H](O)c2cc(F)cc(F)c2)ccc1-c1cnc(N)c(C(=O)NC(C)C)c1 [Form A of the mono-fumarate salt] .
< 1100 µg/mL

###

PROTOCOL_SUMMARY: Solubility in water and biologically relevant media (SGF, FeSSIF, FaSSIF), HPLC, pH, XRPD
Assay type: physicochemical
ASSAY_CONTEXT: pH 2.91, thermodynamic from solid; Water, 37° C., 24 hours
Method: HPLC analysis was performed with an Agilent HPLC 1260 series instrument. The solubility of the Form A of the hemi-fumarate salt was evaluated in water and biologically relevant media, SGF, FeSSIF, and FaSSIF. About 10 mg of the sample was weighed into sample vials and then 2 mL of three bio-relevant media and water were added to each respective sample to make suspensions. All suspensions were shaken at 37° C. with 200 rpm. […]
Counter-ions that a name gives are not always drawn.
MEASURED_METRIC: solubility at 24 h (µg/mL)
Answers are plain numbers, in µg/mL.

Give a short answer stating reported solubility at 24 h for Cc1cc(NC(=O)[C@H](O)c2cc(F)cc(F)c2)ccc1-c1cnc(N)c(C(=O)NC(C)C)c1 [Form A of the hemi-fumarate salt] .
81

###

PROTOCOL_SUMMARY: Solubility of hemi-fumarate Form A by visual assessment upon solvent addition
Type: physicochemical
ASSAY_CONTEXT: heptane, organic solvent or mixture, thermodynamic from solid, Heptane; read-out: Solubility
Structures can show the parent of a compound that is named as a salt.
MEASURED_METRIC: solubility

Give a short answer stating reported solubility for Cc1cc(NC(=O)[C@H](O)c2cc(F)cc(F)c2)ccc1-c1cnc(N)c(C(=O)NC(C)C)c1 [Form A of the hemi-fumarate salt] .
< 630 µg/mL

###

PROTOCOL_SUMMARY: Phase 1a study: pharmacokinetics after oral BID dosing in subjects with advanced solid tumors
Type: in vivo, human
ASSAY_CONTEXT: human, in vivo, po, 25 mg, 25 mg single oral dose, Cycle 1 Day 1, geometric mean, N = 3
Source text: This example describes a first in human, Phase 1a, multi-center, open-label study to establish the maximum tolerated dose (MTD) and evaluate the safety and tolerability of oral dosing of Form A of the hemi-fumarate salt of the compound of formula (I) (Example 11) in a dose-escalating fashion. […]
Structures can show the parent of a compound that is named as a salt.
MEASURED_METRIC: Cmax (ng/mL)
One number for each entry, in ng/mL.

Give a short answer stating reported Cmax for Cc1cc(NC(=O)[C@H](O)c2cc(F)cc(F)c2)ccc1-c1cnc(N)c(C(=O)NC(C)C)c1 [Form A of the hemi-fumarate salt] .
120

###

PROTOCOL_SUMMARY: Phase 1a study: pharmacokinetics after oral BID dosing in subjects with advanced solid tumors
Format: in vivo, human
ASSAY_CONTEXT: human, in vivo, po, 300 mg, 300 mg twice daily oral, Cycle 1 Day 21, point estimate, N = 1
Where a name gives a salt, the structure may show the parent alone.
MEASURED_METRIC: Tmax (h)
Answers are plain numbers, in h.

Give a short answer stating reported Tmax for Cc1cc(NC(=O)[C@H](O)c2cc(F)cc(F)c2)ccc1-c1cnc(N)c(C(=O)NC(C)C)c1 [Form A of the hemi-fumarate salt] .
8

###

PROTOCOL_SUMMARY: Phase 1a study: pharmacokinetics after oral BID dosing in subjects with advanced solid tumors
Format: in vivo, human
ASSAY_CONTEXT: human, in vivo; 300 mg twice daily oral, Cycle 1 Day 21, point estimate, N = 1; read-out: AUC0-τ
Structures can show the parent of a compound that is named as a salt.
MEASURED_METRIC: AUC (ng·h/mL)
Answers are plain numbers, in ng·h/mL.

Give a short answer stating reported AUC for Cc1cc(NC(=O)[C@H](O)c2cc(F)cc(F)c2)ccc1-c1cnc(N)c(C(=O)NC(C)C)c1 [Form A of the hemi-fumarate salt] .
28400

###

PROTOCOL_SUMMARY: Phase 1a study: pharmacokinetics after oral BID dosing in subjects with advanced solid tumors
Assay type: in vivo, human
ASSAY_CONTEXT: human, in vivo, po, 600 mg, 600 mg twice daily oral, Cycle 1 Day 21, point estimate, N = 1; read-out: t1/2, eff (converted)
Where a name gives a salt, the structure may show the parent alone.
MEASURED_METRIC: half-life

Give a short answer stating reported half-life for Cc1cc(NC(=O)[C@H](O)c2cc(F)cc(F)c2)ccc1-c1cnc(N)c(C(=O)NC(C)C)c1 [Form A of the hemi-fumarate salt] .
39.1 h

###

PROTOCOL_SUMMARY: Phase 1a study: pharmacokinetics after oral BID dosing in subjects with advanced solid tumors
Format: in vivo, human
ASSAY_CONTEXT: human, in vivo; 25 mg twice daily oral, Cycle 1 Day 21, geometric mean, N = 3; read-out: AUC0-τ
Counter-ions that a name gives are not always drawn.
MEASURED_METRIC: AUC (ng·h/mL)
Give bare numbers, in ng·h/mL.

Give a short answer stating reported AUC for Cc1cc(NC(=O)[C@H](O)c2cc(F)cc(F)c2)ccc1-c1cnc(N)c(C(=O)NC(C)C)c1 [Form A of the hemi-fumarate salt] .
4110

###

PROTOCOL_SUMMARY: Phase 1a study: pharmacokinetics after oral BID dosing in subjects with advanced solid tumors
Type: in vivo, human
ASSAY_CONTEXT: human, in vivo, po, 200 mg, 200 mg twice daily oral, Cycle 1 Day 21, N = 4; interpret with caution, terminal elimination phase not well captured; read-out: t1/2 (converted)
Counter-ions that a name gives are not always drawn.
MEASURED_METRIC: half-life
Field note: include the unit after the figure.

Give a short answer stating reported half-life for Cc1cc(NC(=O)[C@H](O)c2cc(F)cc(F)c2)ccc1-c1cnc(N)c(C(=O)NC(C)C)c1 [Form A of the hemi-fumarate salt] .
463 min

###

PROTOCOL_SUMMARY: Phase 1a study: pharmacokinetics after oral BID dosing in subjects with advanced solid tumors
Assay type: in vivo, human
ASSAY_CONTEXT: human, in vivo, po, 50 mg, 50 mg single oral dose, Cycle 1 Day 1, geometric mean, N = 3; read-out: AUC0-last
Structures can show the parent of a compound that is named as a salt.
MEASURED_METRIC: AUC(0-t) (ng·h/mL)
One number for each entry, in ng·h/mL.

Give a short answer stating reported AUC(0-t) for Cc1cc(NC(=O)[C@H](O)c2cc(F)cc(F)c2)ccc1-c1cnc(N)c(C(=O)NC(C)C)c1 [Form A of the hemi-fumarate salt] .
2090

###

PROTOCOL_SUMMARY: Solubility of hemi-fumarate Form A by visual assessment upon solvent addition
Assay type: physicochemical
ASSAY_CONTEXT: IPA, organic solvent or mixture, thermodynamic from solid, IPA; read-out: Solubility
Where a name gives a salt, the structure may show the parent alone.
MEASURED_METRIC: solubility

Give a short answer stating reported solubility for Cc1cc(NC(=O)[C@H](O)c2cc(F)cc(F)c2)ccc1-c1cnc(N)c(C(=O)NC(C)C)c1 [Form A of the hemi-fumarate salt] .
> 17.8 mg/mL

###

PROTOCOL_SUMMARY: Phase 1a study: pharmacokinetics after oral BID dosing in subjects with advanced solid tumors
Format: in vivo, human
ASSAY_CONTEXT: human, in vivo, po, 100 mg, 100 mg single oral dose, Cycle 1 Day 1, geometric mean, N = 4; read-out: AUC0-last
Structures can show the parent of a compound that is named as a salt.
MEASURED_METRIC: AUC(0-t)
Field note: include the unit after the figure.

Give a short answer stating reported AUC(0-t) for Cc1cc(NC(=O)[C@H](O)c2cc(F)cc(F)c2)ccc1-c1cnc(N)c(C(=O)NC(C)C)c1 [Form A of the hemi-fumarate salt] .
1930 ng·h/mL
